Where do these numbers come from? They come from the supplement of paper PMC11061612.

# Test system: EW-18 (Ewing's Sarcoma)
# protocol-text: Bliss excess, mean over the matrix (fraction); higher = more synergy;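 further: after 72 h of two-drug dosing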
Entries and their Bliss excess values follow.
# print the numeric value only

Consider the reported Bliss excess for these molecules:
molecule: C[C@@H](c1ccc2nccn2c1)n1nnc2ncc(-c3cnn(C)c3)nc21 [Savolitinib] + Cc1c2c(nn1C)CSCc1cc(n(C)n1)CSc1cc(c3ccccc3c1)OCCCc1c(C(=O)O)n(C)c3c-2c(Cl)ccc13 [AZD5991] (first compound max 1 µM, 7x7, partner max 1 µM)
test-system: EW-18 (Ewing's Sarcoma)
Bliss excess: -0.0113
--
molecule: CC(=O)c1c(C)c2cnc(Nc3ccc(N4CCNCC4)cn3)nc2n(C2CCCC2)c1=O [Palbociclib] + CC1(C)CCC(CN2CCN(c3ccc(C(=O)NS(=O)(=O)c4ccc(NCC5CCOCC5)c([N+](=O)[O-])c4)c(Oc4cnc5[nH]ccc5c4)c3)CC2)=C(c2ccc(Cl)cc2)C1 [Venetoclax] (first compound max 10 µM, 7x7, partner max 1 µM)
test-system: EW-18 (Ewing's Sarcoma)
Bliss excess: 0.0221

[ask] Request body: readout Bliss excess, system EW-18 (Ewing's Sarcoma), query NC1(C(=O)N[C@@H](CCO)c2ccc(Cl)cc2)CCN(c2ncnc3[nH]ccc23)CC1 [Capivasertib] + CCN(CCO)CCCOc1ccc2c(Nc3cc(CC(=O)Nc4cccc(F)c4)[nH]n3)ncnc2c1 [AZD2811] (first compound max 10 µM, 7x7, partner max 1 µM) . Return the value.
[reply] -0.0358

----------
# Tested on: BV-173 (Chronic Myelogenous Leukemia)
# protocol-text: Bliss excess, mean over the matrix (fraction); higher = more synergy
Lab note: compare Bliss excess against 0.02. Equal or greater, write True. Smaller, write False.

Would you please look over these solved cases?
molecule: CC1(C)CCC(CN2CCN(c3ccc(C(=O)NS(=O)(=O)c4ccc(NCC5CCOCC5)c([N+](=O)[O-])c4)c(Oc4cnc5[nH]ccc5c4)c3)CC2)=C(c2ccc(Cl)cc2)C1 [Venetoclax] + C=CCn1c(=O)c2cnc(Nc3ccc(N4CCN(C)CC4)cc3)nc2n1-c1cccc(C(C)(C)O)n1 [AZD1775] (first compound max 1 µM, partner max 1 µM)
answer-label: False

molecule: CN(C)CCCOc1ccc(-c2ccc3ncc4c(c3c2)n(C2CCOCC2)c(=O)n4C)cn1 [AZD0156] + CCN(CCO)CCCOc1ccc2c(Nc3cc(CC(=O)Nc4cccc(F)c4)[nH]n3)ncnc2c1 [AZD2811] (first compound max 1 µM, 7x7, partner max 1 µM)
answer-label: False

molecule: CC(=O)Nc1cccc(-n2c(=O)n(C3CC3)c(=O)c3c(Nc4ccc(I)cc4F)n(C)c(=O)c(C)c32)c1 [Trametinib] + Cc1nc(-c2cn3c(n2)-c2ccc(-c4cnn(C(C)(C)C(N)=O)c4)cc2OCC3)n(C(C)C)n1 [Taselisib] (first compound max 1 µM, 7x7, partner max 10 µM)
answer-label: True

[ask] Given CN(C)CCCOc1ccc(-c2ccc3ncc4c(c3c2)n(C2CCOCC2)c(=O)n4C)cn1 [AZD0156] + C[C@@H]1COCCN1C2=NC(=NC(=C2)C3(CC3)[S@](=N)(=O)C)C4=C5C=CNC5=NC=C4 [AZD6738] (first compound max 1 µM, 7x7, partner max 10 µM) , state whether its Bliss excess is at least 0.02.
[reply] False

[ask] Given Cn1cnc2c(F)c(Nc3ccc(Br)cc3Cl)c(C(=O)NOCCO)cc21 [Selumetinib] + CCN(CCO)CCCOc1ccc2c(Nc3cc(CC(=O)Nc4cccc(F)c4)[nH]n3)ncnc2c1 [AZD2811] (first compound max 10 µM, 7x7, partner max 1 µM) , state whether its Bliss excess is at least 0.02.
[reply] False
